inhibition for assorted molecules
Experiment: BT084 cell growth, single and combined drugs, ICGC_MB145, cisplatin and BGB IC40 combos (AID 1671461);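 also: cells exposed to drugs for 96 hours; 0% = vehicle DMSO and 100% = high DMSO full killing control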
Conditions: BT084 medulloblastoma cells, drug combinations, cisplatin combination, at 5 µM, stronger effect = higher value
Non-standard residues stand in square brackets, D forms with d. Residues, ends and D or L forms follow the SMILES beside them. Dolaproine = CO[C@@H]([C@@H]1CCCN1)[C@@H](C)C(=O)O; Dil = CC[C@H](C)[C@H](NC)[C@@H](CC(=O)O)OC; NMeV = CN[C@H](C(=O)O)C(C)C
assay.endpoint: inhibition (%)

INSERT INTO measurements (molecule, assay_endpoint, number) VALUES
  ('C=C1CCC(O)CC1=CC=C1CCCC2(C)C1CCC2C(C)C=CC(C)C(C)C (centres undefined)', 'inhibition', -77.9),
  ('CC(C=CC(=O)NO)=CC(C)C(=O)c1ccc(N(C)C)cc1 (centres undefined)', 'inhibition', 104),
  ('CC[C@H](C)[C@@H]([C@@H](CC(=O)N1CCC[C@H]1[C@H](OC)[C@@H](C)C(=O)N[C@@H](Cc1ccccc1)C(=O)O)OC)N(C)C(=O)[C@@H](NC(=O)[C@@H](NC)C(C)C)C(C)C (H-[NMeV]V[Dil][Dolaproine]F-OH)', 'inhibition', -10.9),
  ('CN(C)C(=S)NN=C(c1ccccn1)c1ccccn1', 'inhibition', 74);

###

Assay: viability loss with induced miR-34 in A549 – imaging, A549 dox-inducible miR-34, nuclei and caspase counts, primary screen (AID 1347080)
Settings: A549 miR-34 inducible, Hoechst nuclei count, 48 h; stronger effect = lower value; cell number ratio, induced over uninduced
assay.endpoint: fold change

INSERT INTO measurements (compound, number) VALUES
  ('Cc1cc(C)nc(-c2cnn(CC(=O)Nc3cnn(C)n3)c2)n1', 0.881),
  ('COC(c1ccccc1)(c1ccccc1)C(Oc1nc(C)cc(C)n1)C(=O)O (stereo unspecified)', 0.951),
  ('O=C1CN(c2ncnc3nc[nH]c23)CCN1Cc1cccc(F)c1', 0.802),
  ('Fc1cccc(F)c1-c1nc2c(cnn2Cc2cccs2)[nH]1', 0.88),
  ('CC(C)C[C@H](NC(=O)[C@H](O)[C@H](N)Cc1ccccc1)C(=O)O', 1.02),
  ('CC(=O)NC1C(N=C(N)N)C=C(C(=O)O)O[C@H]1C(O)C(O)CO (stereo partly specified)', 0.903),
  ('CCC(C)C(=O)OC1CCC=C2C=CC(C)C(CCC3CC(O)CC(=O)O3)C21 (stereo unspecified)', 0.968),
  ('CO/N=C(\C(=O)N[C@@H]1C(=O)N2C(C(=O)[O-])=C(C[N+]3(C)CCCC3)CS[C@H]12)c1csc(N)n1', 0.872),
  ('COCCn1cncc1CNc1nccc(-c2c(C)nn(C)c2C)n1', 0.881),
  ('COc1cc(CC(CO)C(CO)Cc2ccc(O)c(OC)c2)ccc1O (stereo unspecified)', 1.4),
  ('Cc1csc(CNc2nccc(-c3cn(C)nc3C)n2)n1', 0.888),
  ('CC1CN(S(=O)(=O)c2cccc3cnccc23)CCN1 (stereo unspecified)', 1.09),
  ('OC(CCN1CCCCC1)(c1ccccc1)C1C[C@@H]2C=C[C@H]1C2 (stereo partly specified)', 0.888),
  ('O=C(c1cc(O)c(O)c([N+](=O)[O-])c1)c1ccccc1F', 1.18),
  ('CCOC(=O)C(CCc1ccccc1)NC(C)C(=O)N1Cc2ccccc2CC1C(=O)O (stereo unspecified)', 0.963),
  ('Nc1ncnc2c1nc(Br)n2C1O[C@H]2COP(=O)(O)O[C@@H]2[C@@H]1O (stereo partly specified)', 0.835),
  ('c1ccc2c(c1)CCC[C@H]2Nc1nc2ccccc2[nH]1', 1.09),
  ('CC(=O)OCC(=O)[C@]1(O)CC[C@H]2[C@@H]3CCC4=CC(=O)CC[C@]4(C)[C@@H]3C(=O)C[C@@]21C', 0.938),
  ('O=C(O[C@H]1CN2CCC1CC2)N1CCc2ccccc2C1c1ccccc1 (stereo partly specified)', 0.932),
  ('C[C@]12C=CC(=O)C=C1CC[C@@H]1[C@H]2C(O)C[C@@]2(C)[C@H]1CC[C@@]2(O)C(=O)CO (stereo partly specified)', 0.833),
  ('CN=C(N)NCCCC(N)C(=O)O (stereo unspecified)', 0.944);
